From: patent US12054495B2

System: Sprague-Dawley rats
assay_details: Assessment of wake promotion in Sprague-Dawley rats (EEG/EMG)
Format: in vivo
measurement_setup: Rattus norvegicus; PO, 3 mpk, male Sprague-Dawley rats, dosed at ZT5, 6-hour post-dose period; read-out: Mean cortical activation time (% vehicle treatment)
Item-by-item account of response vs control in vivo at 3 mg/kg
Just the number please, in %, no unit attached.

These recorded examples may help you get a feel for the data.
compound	readout	reading_unit	endpoint_result
CS(=O)(=O)N[C@H]1CCCN2C(=O)COc3ccc(Cl)cc3C3CCC(CC3)OCC12 (stereo partly shown) [Compound 51]	response vs control in vivo at 3 mg/kg	%	166
CS(=O)(=O)N[C@H]1CCN2C(=O)COc3ccccc3C3CCC(CC3)OCC12 (stereo partly shown) [Compound 7]	response vs control in vivo at 3 mg/kg	%	165
CS(=O)(=O)N[C@H]1CCCN2C(=O)COc3nccnc3C3CCC(CC3)OCC12 (stereo partly shown) [Compound 55]	response vs control in vivo at 3 mg/kg	%	145
CS(=O)(=O)N[C@H]1CCCN2C(=O)COc3ccccc3C3CCC(CC3)OCC12 (stereo partly shown) [Compound 2]	response vs control in vivo at 3 mg/kg	%	190
CS(=O)(=O)N[C@@H]1CCCN2C(=O)COc3cccc(F)c3[C@H]3CC[C@H](CC3)OC[C@H]12 (racemic) [Compound 49]	response vs control in vivo at 3 mg/kg	%	340

In: Fill in the blank: the reported response vs control in vivo at 3 mg/kg of CS(=O)(=O)N[C@H]1CCCN2C(=O)COc3ncccc3C3CCC(CC3)OCC12 (stereo partly shown) [Compound 46] is ____.
Out: 157

In: Fill in the blank: the reported response vs control in vivo at 3 mg/kg of CS(=O)(=O)N[C@H]1CCCN2C(=O)COc3c(F)cc(F)cc3C3CCC(CC3)OCC12 (stereo partly shown) [Compound 12] is ____.
Out: 236
